# Target system: human trypsin isoform PRSS2 (anionic trypsin), recombinant (Homo sapiens, UniProt P07478)
# Construct: made in house; host or cells: Escherichia coli BL21(DE3)
# Test description: Competitive inhibition kinetics of trypsin, GPR-pNA substrate
# Format: biochemical
# Condition parameters: Ki dabigatran, Individual fit, mean ± SD, n = 3
Readout name: pKi
Units for pKi: none; it is -log10 of a concentration expressed in mol/L.

For this compound ( "[H]/N=C(/N)c1ccc(NCc2nc3cc(C(=O)N(CCC(=O)O)c4ccccn4)ccc3n2C)cc1" ), measured pKi is 7.75

---

# Target system: human trypsin isoform PRSS1 (cationic trypsin), recombinant (Homo sapiens, UniProt P07477)
# Construct: made in house; host or cells: Escherichia coli BL21(DE3)
# Test description: Competitive inhibition kinetics of trypsin, GPR-pNA substrate
# Format: biochemical
# Condition parameters: Ki dabigatran, Global fit, mean ± SD, n = 3
# Method: Recombinant human and mouse trypsinogens were expressed in Escherichia coli BL21(DE3) (Invitrogen), refolded in vitro, and purified by ecotin affinity chromatography (Pharmacia FPLC), according to published protocols ([60], [63], [64]). […] Substrate cleavage resulting in the release of the yellow p-nitroaniline was monitored for 1 minute in a Spectramax Plus 384 microplate reader at 405 nm. […]
Readout name: pKi
// pKi is dimensionless: -log10 of concentration (M)

Value of pKi reported for the molecule [H]/N=C(/N)c1ccc(NCc2nc3cc(C(=O)N(CCC(=O)O)c4ccccn4)ccc3n2C)cc1 [dabigatran] is 7.55

---

# Target system: human trypsin isoform PRSS1 (cationic trypsin), recombinant (Homo sapiens, UniProt P07477)
# Construct: made in house; host or cells: Escherichia coli BL21(DE3)
# Test description: Competitive inhibition kinetics of trypsin, GPR-pNA substrate
# Type: biochemical
# Condition parameters: Ki dabigatran, Individual fit, mean ± SD, n = 3
Readout name: pKi
Quick note: pKi values are minus log10 of concentrations in mol/L.

Noted for [H]/N=C(/N)c1ccc(NCc2nc3cc(C(=O)N(CCC(=O)O)c4ccccn4)ccc3n2C)cc1 [dabigatran] : its pKi reads 7.68

---

# Target system: sulfated human trypsin PRSS1-SO4 purified from pancreatic juice (Homo sapiens)
# Construct: from tissue; host or cells: human pancreatic juice
# Test description: Competitive inhibition kinetics of trypsin, GPR-pNA substrate
# Assay type: biochemical
# Condition parameters: Ki benzamidine, Individual fit, mean ± SD, n = 3
Readout name: pKi
Please treat pKi as minus the base-10 logarithm of the molar concentration.

Just so you know, measured pKi for "N=C(N)c1ccccc1" came out at 5.08

---

# Target system: human trypsin isoform PRSS1 (cationic trypsin), recombinant (Homo sapiens)
# Construct: made in house; host or cells: Escherichia coli BL21(DE3)
# Test description: Competitive inhibition kinetics of trypsin, GPR-pNA substrate
# Assay type: biochemical
# Condition parameters: Ki benzamidine, Global fit, mean ± SD, n = 3
Readout name: pKi
Kindly note that pKi refers to -log10 of the concentration in mol/L and answer with the value alone.

Field pKi (entry N=C(N)c1ccccc1 [benzamidine] ) reads 4.65

---

# Target system: sulfated human trypsin PRSS2-SO4 purified from pancreatic juice (Homo sapiens, UniProt P07478)
# Construct: from tissue; host or cells: human pancreatic juice
# Sequence (P07478 24-247): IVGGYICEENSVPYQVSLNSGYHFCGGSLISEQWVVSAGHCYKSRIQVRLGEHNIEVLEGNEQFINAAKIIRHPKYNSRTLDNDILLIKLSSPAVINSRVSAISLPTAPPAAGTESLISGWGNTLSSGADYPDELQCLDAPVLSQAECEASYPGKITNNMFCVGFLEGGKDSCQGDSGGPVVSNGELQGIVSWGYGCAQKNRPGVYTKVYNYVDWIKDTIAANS
# Test description: Competitive inhibition kinetics of trypsin, GPR-pNA substrate
# Type: biochemical
# Condition parameters: Ki dabigatran, Global fit, mean ± SD, n = 3
Readout name: Ki (nM)
Write down the numeric answer in nM and omit the unit.

Input "[H]/N=C(/N)c1ccc(NCc2nc3cc(C(=O)N(CCC(=O)O)c4ccccn4)ccc3n2C)cc1" . Output Ki: 10.3

---

# Target system: mouse trypsin isoform T20 (anionic trypsin) (Mus musculus)
# Construct: made in house; host or cells: Escherichia coli BL21(DE3)
# Sequence (P07146 24-246): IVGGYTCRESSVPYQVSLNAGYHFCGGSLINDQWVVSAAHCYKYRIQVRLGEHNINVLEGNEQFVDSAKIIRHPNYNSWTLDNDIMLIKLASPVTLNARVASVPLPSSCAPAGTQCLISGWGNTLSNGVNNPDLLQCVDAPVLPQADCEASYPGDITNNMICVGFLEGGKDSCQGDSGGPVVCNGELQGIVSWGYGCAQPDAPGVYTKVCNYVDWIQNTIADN
# Test description: Competitive inhibition kinetics of trypsin, GPR-pNA substrate
# Assay type: biochemical
# Condition parameters: Ki dabigatran, Global fit, mean ± SD, n = 3
# Method: Recombinant human and mouse trypsinogens were expressed in Escherichia coli BL21(DE3) (Invitrogen), refolded in vitro, and purified by ecotin affinity chromatography (Pharmacia FPLC), according to published protocols ([60], [63], [64]). […] Substrate cleavage resulting in the release of the yellow p-nitroaniline was monitored for 1 minute in a Spectramax Plus 384 microplate reader at 405 nm. […]
Readout name: Ki (nM)
Report as a plain number; the unit nM is understood.

Measured Ki, "[H]/N=C(/N)c1ccc(NCc2nc3cc(C(=O)N(CCC(=O)O)c4ccccn4)ccc3n2C)cc1" : 22.6

---

# Target system: mouse trypsin isoform T20 (anionic trypsin) (Mus musculus)
# Construct: made in house; host or cells: Escherichia coli BL21(DE3)
# Test description: Competitive inhibition kinetics of trypsin, GPR-pNA substrate
# Format: biochemical
# Condition parameters: Ki benzamidine, Individual fit, mean ± SD, n = 3
Readout name: pKi
Reminder that pKi is minus the log10 of a molar concentration.

Kindly note the recorded pKi for "N=C(N)c1ccccc1" , which is 5.16

---

# Target system: mouse trypsin isoform T9 (anionic trypsin) (Mus musculus, UniProt Q9QUK9)
# Sequence (Q9QUK9 24-246): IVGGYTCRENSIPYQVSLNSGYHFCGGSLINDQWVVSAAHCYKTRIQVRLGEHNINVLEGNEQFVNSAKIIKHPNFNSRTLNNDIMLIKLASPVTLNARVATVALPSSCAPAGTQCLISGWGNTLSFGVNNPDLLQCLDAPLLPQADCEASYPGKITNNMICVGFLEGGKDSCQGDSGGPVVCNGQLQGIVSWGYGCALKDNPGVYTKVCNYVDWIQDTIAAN
# Test description: biochemical
# Type: biochemical
# Condition parameters: mean ± SD, n = 3
Readout name: pKi
# pKi is unitless: minus log10 of the molar concentration; print number only

The reported pKi of the compound "N=C(N)c1ccccc1" was 5.17

---

# Target system: human trypsin isoform PRSS3 (mesotrypsin) (Homo sapiens, UniProt P35030)
# Construct: made in house; host or cells: Escherichia coli BL21(DE3)
# Sequence (P35030 81-304 limits assumed): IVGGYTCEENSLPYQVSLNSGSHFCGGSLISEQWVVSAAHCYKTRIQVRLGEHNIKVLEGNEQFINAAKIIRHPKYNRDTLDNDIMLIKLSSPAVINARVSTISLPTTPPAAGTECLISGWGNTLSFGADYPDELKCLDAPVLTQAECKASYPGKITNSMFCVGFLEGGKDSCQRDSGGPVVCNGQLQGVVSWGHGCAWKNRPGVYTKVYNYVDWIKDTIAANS
# Test description: Competitive inhibition kinetics of trypsin, GPR-pNA substrate
# Assay type: biochemical
# Condition parameters: Ki benzamidine, Individual fit, mean ± SD, n = 3
# Description: Recombinant human and mouse trypsinogens were expressed in Escherichia coli BL21(DE3) (Invitrogen), refolded in vitro, and purified by ecotin affinity chromatography (Pharmacia FPLC), according to published protocols ([60], [63], [64]). […] Substrate cleavage resulting in the release of the yellow p-nitroaniline was monitored for 1 minute in a Spectramax Plus 384 microplate reader at 405 nm. […]
Readout name: pKi
Would you please state pKi, meaning minus log10 of the concentration in mol/L, as a bare number?

Entry "N=C(N)c1ccccc1" ; assay system human trypsin isoform PRSS3 (mesotrypsin) (Homo sapiens, UniProt P35030); pKi recorded at 4.81

---

# Target system: human and mouse trypsin isoforms
# Test description: Ki ranges over the panel of trypsin isoforms
# Assay type: biochemical
# Condition parameters: all human and mouse trypsin isoforms; read-out: Ki range
Readout name: Ki

// "[H]/N=C(/N)c1ccc(NCc2nc3cc(C(=O)N(CCC(=O)O)c4ccccn4)ccc3n2C)cc1" : Ki value = 10 to 79 nM

---

# Target system: mouse trypsin isoform T20 (anionic trypsin) (Mus musculus)
# Construct: made in house; host or cells: Escherichia coli BL21(DE3)
# Test description: Competitive inhibition kinetics of trypsin, GPR-pNA substrate
# Assay type: biochemical
# Condition parameters: Ki benzamidine, Global fit, mean ± SD, n = 3
Readout name: Ki (µM)
Output spec: scalar in µM, unitless text.

Noted for "N=C(N)c1ccccc1" : its Ki reads 7.6

---

# Target system: human trypsin isoform PRSS2 (anionic trypsin), recombinant (Homo sapiens)
# Construct: made in house; host or cells: Escherichia coli BL21(DE3)
# Test description: Competitive inhibition kinetics of trypsin, GPR-pNA substrate
# Format: biochemical
# Condition parameters: Ki dabigatran, Global fit, mean ± SD, n = 3
Readout name: pKi
// returns pKi (minus log10 of molar concentration), number only

Measured on human trypsin isoform PRSS2 (anionic trypsin), recombinant (Homo sapiens), "[H]/N=C(/N)c1ccc(NCc2nc3cc(C(=O)N(CCC(=O)O)c4ccccn4)ccc3n2C)cc1" has a documented pKi of 7.85

---

# Target system: mouse trypsin isoform T8 (anionic trypsin) (Mus musculus, UniProt Q9R0T7)
# Sequence (Q9R0T7 24-246): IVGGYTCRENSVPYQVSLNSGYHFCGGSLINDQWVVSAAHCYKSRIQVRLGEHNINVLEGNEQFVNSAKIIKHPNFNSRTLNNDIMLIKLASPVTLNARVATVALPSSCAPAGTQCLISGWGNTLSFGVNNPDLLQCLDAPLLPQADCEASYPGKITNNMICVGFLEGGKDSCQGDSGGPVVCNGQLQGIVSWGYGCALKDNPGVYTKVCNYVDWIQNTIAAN
# Test description: biochemical
# Format: biochemical
Readout name: Ki (nM)
Dear colleague, please return just the value in nM, with no unit written.

For this molecule ( "[H]/N=C(/N)c1ccc(NCc2nc3cc(C(=O)N(CCC(=O)O)c4ccccn4)ccc3n2C)cc1" ), measured Ki is 31.6

---

# Target system: mouse trypsin isoform T9 (anionic trypsin) (Mus musculus, UniProt Q9QUK9)
# Test description: biochemical
# Type: biochemical
# Condition parameters: Ki dabigatran, Global fit, mean ± SD, n = 3
Readout name: Ki (nM)
Number only, in nM; omit the unit.

Value of measured Ki for the entry "[H]/N=C(/N)c1ccc(NCc2nc3cc(C(=O)N(CCC(=O)O)c4ccccn4)ccc3n2C)cc1" : 35.8

---

# Target system: mouse trypsin isoform T9 (anionic trypsin) (Mus musculus, UniProt Q9QUK9)
# Test description: biochemical
# Format: biochemical
# Condition parameters: Ki dabigatran, Individual fit, mean ± SD, n = 3
Readout name: Ki (nM)
The reply should contain only the number, in nM.

Readout Ki for [H]/N=C(/N)c1ccc(NCc2nc3cc(C(=O)N(CCC(=O)O)c4ccccn4)ccc3n2C)cc1 [dabigatran] , test system mouse trypsin isoform T9 (anionic trypsin) (Mus musculus, UniProt Q9QUK9), was 28.4
